# TARGET_SYSTEM: BC domain of human ACC1 (Homo sapiens, UniProt Q13085)
# Construct: the BC domains of human ACC1 and ACC2
# PROTOCOL: binding to BC domain of human ACC1 (unpublished results)
pKd: −log10 of the molar value.
READOUT: pKd

# pKd (compound: CO[C@H]1CCCC[C@@H](c2ccccc2)OC(=O)[C@@H](C)[C@@]2(O)O[C@H]([C@@H](C)[C@H](O)[C@H]2OC)[C@@H](C)/C=C/[C@H]1OC [soraphen A] ) is ~9.00

---

# TARGET_SYSTEM: K73R mutant yeast BC domain (Saccharomyces cerevisiae, UniProt Q00955, K73R)
# Construct: Residues 2-581 of yeast ACC were sub-cloned into the pET28a vector; made in house; host or cells: E. coli
# Sequence (Q00955 2-581 K73R): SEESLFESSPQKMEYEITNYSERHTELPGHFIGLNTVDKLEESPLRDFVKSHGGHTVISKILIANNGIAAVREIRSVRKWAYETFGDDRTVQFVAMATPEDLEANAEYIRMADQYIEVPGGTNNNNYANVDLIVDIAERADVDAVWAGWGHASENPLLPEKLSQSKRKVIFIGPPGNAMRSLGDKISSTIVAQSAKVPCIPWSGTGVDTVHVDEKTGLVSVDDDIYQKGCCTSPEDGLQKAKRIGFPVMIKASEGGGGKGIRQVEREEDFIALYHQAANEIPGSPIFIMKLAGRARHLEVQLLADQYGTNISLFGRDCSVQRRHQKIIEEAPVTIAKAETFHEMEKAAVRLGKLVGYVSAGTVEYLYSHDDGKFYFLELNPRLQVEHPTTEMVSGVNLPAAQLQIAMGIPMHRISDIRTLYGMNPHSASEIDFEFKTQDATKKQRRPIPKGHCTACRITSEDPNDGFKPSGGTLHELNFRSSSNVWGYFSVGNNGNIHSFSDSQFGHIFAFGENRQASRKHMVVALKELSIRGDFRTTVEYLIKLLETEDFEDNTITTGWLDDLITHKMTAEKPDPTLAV
# PROTOCOL: fluorescence-based binding assay, K73R mutant
# EXPERIMENTAL_PARAMETERS: K73R yeast BC domain, 50 nM enzyme
READOUT: Kd (nM)
Entry rule: numbers only, all in nM.

The recorded Kd for CO[C@H]1CCCC[C@@H](c2ccccc2)OC(=O)[C@@H](C)[C@@]2(O)O[C@H]([C@@H](C)[C@H](O)[C@H]2OC)[C@@H](C)/C=C/[C@H]1OC [soraphen A] is 2010

Data origin: patent US20090215627A1
